Catalogue of compounds with associated inhibition at 10 µM
# System: gastric cancer cell line Hs746T
# EXPERIMENT DESCRIPTION: Cancer cell proliferation inhibitory activity evaluation 2 (CCK-8), Hs746T
# Format: cell-based
# CONDITION PARAMETERS: Homo sapiens, 72 h, read-out: Cancer cell proliferation inhibitory activity Hs746T
TEST READOUT: inhibition at 10 µM

[[record]]
molecular_string = "CCS(=O)(=O)N1CC[C@H](Nc2c(Br)cnc3[nH]c(-c4cc(C)n(-c5ccc(C(=O)O)cc5)c4C)nc23)C1"
test_readout = "inhibition at 10 µM"
result = "10 to 50%"

[[record]]
molecular_string = "CCS(=O)(=O)N1CC[C@H](Nc2c(Br)cnc3nc(-c4cc(C)n(-c5ccc(NC(=O)CN6CCN(C)CC6)cc5C)c4C)[nH]c23)C1"
test_readout = "inhibition at 10 µM"
result = "> 50%"

[[record]]
molecular_string = "CCS(=O)(=O)N1CC[C@H](Nc2c(Br)cnc3nc(-c4cc(C)n(-c5cccc(NC(=O)CN6CCOCC6)c5)c4C)[nH]c23)C1"
test_readout = "inhibition at 10 µM"
result = "> 50%"

[[record]]
molecular_string = "CCS(=O)(=O)N1CC[C@H](Nc2c(Br)cnc3nc(-c4cc(C)n(-c5cccc(C(=O)N6CCOCC6)c5C)c4C)[nH]c23)C1"
test_readout = "inhibition at 10 µM"
result = "> 50%"

[[record]]
molecular_string = "CCS(=O)(=O)N1CC[C@H](Nc2c(Br)cnc3[nH]c(-c4cc(C)n(-c5cccc(C(=O)NCCN6CCOCC6)c5)c4C)nc23)C1"
test_readout = "inhibition at 10 µM"
result = "10 to 50%"

[[record]]
molecular_string = "CCS(=O)(=O)N1CC[C@H](Nc2c(Br)cnc3[nH]c(-c4cc(C)n(-c5ccc(C(=O)NCCN6CCN(C)CC6)cc5)c4C)nc23)C1"
test_readout = "inhibition at 10 µM"
result = "> 50%"

[[record]]
molecular_string = "CCS(=O)(=O)N1CC[C@H](Nc2c(Br)cnc3[nH]c(-c4cc(C)n(-c5cccc(NS(C)(=O)=O)c5C)c4C)nc23)C1"
test_readout = "inhibition at 10 µM"
result = "> 50%"

[[record]]
molecular_string = "CCS(=O)(=O)N1CC[C@H](Nc2c(Br)cnc3nc(-c4cc(C)n(-c5cc(C(=O)NCCN(C)C)ccc5C)c4C)[nH]c23)C1"
test_readout = "inhibition at 10 µM"
result = "> 50%"

[[record]]
molecular_string = "CCS(=O)(=O)N1CC[C@H](Nc2c(Br)cnc3nc(-c4cc(C)n(-c5cccc(C(=O)N6CCN(C)CC6)c5C)c4C)[nH]c23)C1"
test_readout = "inhibition at 10 µM"
result = "10 to 50%"

[[record]]
molecular_string = "CCS(=O)(=O)N1CC[C@H](Nc2c(Br)cnc3nc(-c4cc(C)n(-c5cccc(NC(=O)CCN(C)C)c5C)c4C)[nH]c23)C1"
test_readout = "inhibition at 10 µM"
result = "> 50%"

[[record]]
molecular_string = "CCS(=O)(=O)N1CC[C@H](Nc2c(Br)cnc3[nH]c(-c4cc(C)n(-c5cccc(C(=O)NCN(C)C)c5)c4C)nc23)C1"
test_readout = "inhibition at 10 µM"
result = "> 50%"

[[record]]
molecular_string = "CCS(=O)(=O)N1CC[C@H](Nc2c(Br)cnc3[nH]c(-c4cc(C)n(-c5cccc(C(=O)NCCN6CCN(C)CC6)c5)c4C)nc23)C1"
test_readout = "inhibition at 10 µM"
result = "> 50%"

[[record]]
molecular_string = "CCS(=O)(=O)N1CC[C@H](Nc2c(Br)cnc3nc(-c4cc(C)n(-c5cccc(NC(=O)CN(C)C)c5)c4C)[nH]c23)C1"
test_readout = "inhibition at 10 µM"
result = "> 50%"


Reference source for all entries: patent US12545673B2
